Listed here are compounds together with their documented IC50.
- Test system: PI3K δ (Homo sapiens, UniProt O00329)
- Sequence (O00329 whole entry): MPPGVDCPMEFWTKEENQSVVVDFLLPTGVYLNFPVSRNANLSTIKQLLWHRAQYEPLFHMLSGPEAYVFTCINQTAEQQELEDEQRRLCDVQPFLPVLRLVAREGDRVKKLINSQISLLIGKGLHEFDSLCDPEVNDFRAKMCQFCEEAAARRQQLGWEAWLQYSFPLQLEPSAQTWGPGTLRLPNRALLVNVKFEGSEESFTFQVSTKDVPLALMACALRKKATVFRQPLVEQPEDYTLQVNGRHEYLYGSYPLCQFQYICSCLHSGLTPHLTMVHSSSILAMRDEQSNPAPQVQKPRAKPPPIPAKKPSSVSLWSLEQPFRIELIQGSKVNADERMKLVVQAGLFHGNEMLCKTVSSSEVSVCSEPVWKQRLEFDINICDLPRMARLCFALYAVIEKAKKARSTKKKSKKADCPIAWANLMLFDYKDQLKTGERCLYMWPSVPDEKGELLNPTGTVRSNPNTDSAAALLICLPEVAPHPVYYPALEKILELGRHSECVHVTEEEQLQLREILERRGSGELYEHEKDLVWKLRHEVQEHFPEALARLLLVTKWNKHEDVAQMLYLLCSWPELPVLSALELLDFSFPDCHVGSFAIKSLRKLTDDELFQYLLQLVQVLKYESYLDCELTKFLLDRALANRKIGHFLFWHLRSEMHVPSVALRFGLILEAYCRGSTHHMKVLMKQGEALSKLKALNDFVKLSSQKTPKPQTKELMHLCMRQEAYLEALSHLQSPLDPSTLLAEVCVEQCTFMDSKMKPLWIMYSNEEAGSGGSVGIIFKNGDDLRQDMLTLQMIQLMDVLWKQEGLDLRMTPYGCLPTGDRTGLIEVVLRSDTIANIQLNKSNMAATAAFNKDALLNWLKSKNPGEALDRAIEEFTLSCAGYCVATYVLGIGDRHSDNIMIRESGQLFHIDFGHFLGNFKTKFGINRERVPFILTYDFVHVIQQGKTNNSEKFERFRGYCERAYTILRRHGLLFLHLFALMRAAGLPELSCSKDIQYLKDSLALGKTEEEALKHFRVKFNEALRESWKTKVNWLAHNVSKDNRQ
- Sequence (P27986 whole entry partner): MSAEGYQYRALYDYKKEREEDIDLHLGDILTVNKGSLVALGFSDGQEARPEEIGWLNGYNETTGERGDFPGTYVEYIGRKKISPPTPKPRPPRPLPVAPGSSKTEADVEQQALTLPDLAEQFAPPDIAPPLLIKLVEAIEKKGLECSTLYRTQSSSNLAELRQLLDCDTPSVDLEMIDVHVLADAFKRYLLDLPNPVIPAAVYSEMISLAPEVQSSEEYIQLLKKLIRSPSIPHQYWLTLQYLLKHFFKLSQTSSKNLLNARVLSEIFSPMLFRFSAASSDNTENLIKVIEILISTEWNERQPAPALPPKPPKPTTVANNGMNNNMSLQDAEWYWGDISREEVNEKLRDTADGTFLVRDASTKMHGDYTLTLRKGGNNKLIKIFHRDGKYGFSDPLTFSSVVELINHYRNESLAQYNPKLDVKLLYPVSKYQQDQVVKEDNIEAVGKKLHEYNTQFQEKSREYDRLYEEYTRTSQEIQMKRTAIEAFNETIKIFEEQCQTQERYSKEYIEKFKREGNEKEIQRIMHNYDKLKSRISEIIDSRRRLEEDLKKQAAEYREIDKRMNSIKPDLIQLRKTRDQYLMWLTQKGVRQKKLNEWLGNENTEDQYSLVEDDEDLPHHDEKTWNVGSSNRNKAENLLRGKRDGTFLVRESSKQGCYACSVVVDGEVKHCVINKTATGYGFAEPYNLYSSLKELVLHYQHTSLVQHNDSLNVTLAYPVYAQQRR
- Procedure summary: PI 3-Kinase (human) HTRF assay, PI3K δ

Q) // IC50 lookup, key: C=Cc1oc(NC(C)=O)nc1/C=C/c1nn(C)c2ncnc(N)c12
A) < 1 µM

Q) I would be grateful if you could share the reported IC50 for CCN1CCN(C(=O)c2cnc3ncc(-c4ccc5oc(N)nc5c4)cn23)CC1 .
A) > 10 µM

Q) Need IC50 of C[C@H]1CN(C2CN(c3cnc4ccc(-c5ccc6oc(N)nc6c5)nc4c3)C2)CCN1C , thanks.
A) < 1 µM

Q) If you can, please state the reported IC50 value of COC(=O)Nc1noc2ccc(-c3nn(C(C)C)c4ncnc(N)c34)cc12 .
A) < 10 µM

Q) Give the measured IC50 of C[C@H]1CN(c2cnc3scc(-c4ccc5oc(N)nc5c4)c3n2)CCN1 .
A) > 10 µM

Q) What measured IC50 goes with Nc1nsc2cc(-c3ccc4nccc(-c5ccncc5)c4c3)ccc12 ?
A) < 1 µM

Q) May I ask what IC50 has been recorded for C[C@H]1CN(c2cnc3ccc(-c4ccc5oc(N)nc5c4)cc3n2)CCN1 ?
A) > 10 µM

###

- Test system: PI3K α (Homo sapiens, UniProt P42336)
- Sequence (P42336 whole entry): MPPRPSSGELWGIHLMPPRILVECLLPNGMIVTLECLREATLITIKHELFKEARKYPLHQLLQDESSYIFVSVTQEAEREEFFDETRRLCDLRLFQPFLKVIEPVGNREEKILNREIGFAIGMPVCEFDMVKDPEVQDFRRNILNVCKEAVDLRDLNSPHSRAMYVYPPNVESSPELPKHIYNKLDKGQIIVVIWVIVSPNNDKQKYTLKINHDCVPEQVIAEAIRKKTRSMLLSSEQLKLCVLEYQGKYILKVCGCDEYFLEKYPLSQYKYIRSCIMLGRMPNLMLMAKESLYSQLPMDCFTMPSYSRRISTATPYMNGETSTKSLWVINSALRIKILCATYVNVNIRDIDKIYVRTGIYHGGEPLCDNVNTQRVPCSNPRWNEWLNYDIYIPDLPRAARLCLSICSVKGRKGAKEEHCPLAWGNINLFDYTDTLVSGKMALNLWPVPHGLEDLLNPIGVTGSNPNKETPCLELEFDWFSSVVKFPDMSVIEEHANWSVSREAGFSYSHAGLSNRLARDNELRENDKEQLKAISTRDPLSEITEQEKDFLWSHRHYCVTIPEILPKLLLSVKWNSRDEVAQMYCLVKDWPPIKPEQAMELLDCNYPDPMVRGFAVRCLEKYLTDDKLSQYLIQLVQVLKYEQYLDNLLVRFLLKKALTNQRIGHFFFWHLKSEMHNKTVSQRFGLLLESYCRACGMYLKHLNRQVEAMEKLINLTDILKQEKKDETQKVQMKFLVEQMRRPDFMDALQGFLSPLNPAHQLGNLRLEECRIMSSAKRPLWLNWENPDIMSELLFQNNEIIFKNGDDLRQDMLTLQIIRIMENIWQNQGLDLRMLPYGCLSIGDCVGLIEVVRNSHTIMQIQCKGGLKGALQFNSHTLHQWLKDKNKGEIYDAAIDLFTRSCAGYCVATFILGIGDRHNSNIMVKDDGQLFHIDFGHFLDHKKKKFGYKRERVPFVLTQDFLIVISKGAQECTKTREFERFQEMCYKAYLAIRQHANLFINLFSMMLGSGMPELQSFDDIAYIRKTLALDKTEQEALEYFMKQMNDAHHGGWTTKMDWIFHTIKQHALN
- Sequence (P27986 whole entry partner): as the sequence (P27986 whole entry partner) above
- Procedure summary: PI 3-Kinase (human) HTRF assay, PI3K α
- Measurement parameters: read-out: PI3K α IC50; in vitro
pIC50: −log10 of the molar value.
Measured metric: pIC50

// solved cases for pIC50 follow
[[record]]
structure_smiles = "Cc1ncc(-c2ccc3ncc(C(=O)N4CCOCC4)n3c2)c2cc[nH]c12"
result = "> 5.00"

[[record]]
structure_smiles = "Nc1cc(-c2ccc3ncc(C(=O)N4CCOCC4)n3c2)cnc1Cl"
result = "> 5.00"

[[record]]
structure_smiles = "O=C(c1cnc2ccc(-c3cncc4c3cnn4CCO)cn12)N1CCOCC1"
result = "< 5.00"

[[record]]
structure_smiles = "CNS(=O)(=O)c1cc(-c2ccc3ncc(C(=O)N4CCOCC4)n3c2)ccc1OC"
result = "< 5.00"

[[record]]
structure_smiles = "[2H]c1c(-c2ccc3ncc(C(=O)N4CCOCC4)n3c2)c([2H])c2nc(N)oc2c1[2H]"
result = "> 7.00"


Q) Give its pIC50 value. Item: COc1ccc(CNc2n[nH]c3cc(-c4ccc5oc(N)nc5c4)ccc23)cc1
A) < 5.00

Q) pIC50 for O=C(c1cnc2ccc(-c3cnc4cc[nH]c4c3)cn12)N1CCOCC1 ?
A) > 5.00

Q) # pIC50 lookup, item O=C(c1cnc2ccc(-c3ccnc4[nH]ncc34)cn12)N1CCOCC1
A) > 5.00

###

- Test system: PI3K β (Homo sapiens)
- Sequence (P42338 whole entry): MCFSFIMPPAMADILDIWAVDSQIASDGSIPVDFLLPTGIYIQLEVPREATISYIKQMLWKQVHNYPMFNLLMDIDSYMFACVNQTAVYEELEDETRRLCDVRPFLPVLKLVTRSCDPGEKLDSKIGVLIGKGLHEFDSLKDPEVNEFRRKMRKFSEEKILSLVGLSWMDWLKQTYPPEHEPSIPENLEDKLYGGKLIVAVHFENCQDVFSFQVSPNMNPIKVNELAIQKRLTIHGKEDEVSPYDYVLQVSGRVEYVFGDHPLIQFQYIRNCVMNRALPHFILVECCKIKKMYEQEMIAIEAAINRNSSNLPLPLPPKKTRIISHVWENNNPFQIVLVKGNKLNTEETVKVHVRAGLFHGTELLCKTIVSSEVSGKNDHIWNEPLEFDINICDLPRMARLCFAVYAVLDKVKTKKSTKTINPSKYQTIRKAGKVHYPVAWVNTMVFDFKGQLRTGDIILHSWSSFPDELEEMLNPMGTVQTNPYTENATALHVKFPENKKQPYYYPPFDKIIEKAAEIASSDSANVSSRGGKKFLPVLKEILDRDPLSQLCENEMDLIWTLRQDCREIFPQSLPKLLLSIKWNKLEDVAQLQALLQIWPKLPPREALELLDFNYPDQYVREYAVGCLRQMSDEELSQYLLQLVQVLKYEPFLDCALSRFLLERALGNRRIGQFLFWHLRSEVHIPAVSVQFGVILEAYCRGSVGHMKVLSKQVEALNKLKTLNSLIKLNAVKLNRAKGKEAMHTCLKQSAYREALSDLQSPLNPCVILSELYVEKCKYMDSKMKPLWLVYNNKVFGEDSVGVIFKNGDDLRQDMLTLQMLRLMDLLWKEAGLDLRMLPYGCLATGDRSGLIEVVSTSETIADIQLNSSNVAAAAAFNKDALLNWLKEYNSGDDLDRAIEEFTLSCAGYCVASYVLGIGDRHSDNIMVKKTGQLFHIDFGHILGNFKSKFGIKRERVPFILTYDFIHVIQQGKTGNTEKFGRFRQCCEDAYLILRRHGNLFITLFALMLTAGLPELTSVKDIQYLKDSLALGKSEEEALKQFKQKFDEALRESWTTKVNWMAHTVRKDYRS
- Sequence (P27986 whole entry partner): as the sequence (P27986 whole entry partner) above
- Procedure summary: PI 3-Kinase (human) HTRF assay, PI3K β
- Measurement parameters: read-out: PI3K β IC50; Table 4
pIC50: −log10 of the molar value.
The following compounds are listed with their measured pIC50 values.

[[record]]
compound = "C[C@@H]1COCCN1c1cnc2ccc(-c3ccc4oc(N)nc4c3)nc2n1 [Compound 565]"
test_system = "PI3K β (Homo sapiens)"
result = "> 5.00"

[[record]]
compound = "Nc1nc2cc(-c3ccc4ncc(N5CC6CCC(C5)O6)cc4n3)ccc2o1 [Compound 610]"
test_system = "PI3K β (Homo sapiens)"
result = "< 5.00"

[[record]]
compound = "Nc1nc2cc(-c3ccc4ncc(N5CC(N6CCN(CCO)CC6)C5)nc4n3)ccc2o1 [Compound 597]"
test_system = "PI3K β (Homo sapiens)"
result = "> 5.00"

[[record]]
compound = "CC1CN(C2CN(c3cnc4ccc(-c5ccc6oc(N)nc6c5)nc4n3)C2)CCO1 (stereo not shown) [Compound 569]"
test_system = "PI3K β (Homo sapiens)"
result = "< 5.00"

[[record]]
compound = "Cc1nccn1C1CN(c2cnc3ccc(-c4ccc5oc(N)nc5c4)nc3n2)C1 [Compound 601]"
test_system = "PI3K β (Homo sapiens)"
result = "> 5.00"


Q) Would you mind telling me what pIC50 value was observed for CN1CCN(C2CN(c3cnc4ccc(-c5ccc6oc(N)nc6c5)nc4n3)C2)CC1 [Compound 622] ?
A) > 5.00

Q) Can you share its pIC50? I mean this compound: Nc1nc2cc(-c3ccc4ncc(N5CCC(O)CC5)nc4n3)ccc2o1 [Compound 596]
A) > 5.00

Q) Param item = CC1(C)CN(C2CN(c3cnc4ccc(-c5ccc6oc(N)nc6c5)nc4n3)C2)CCN1 [Compound 603] ; retrieve measured pIC50.
A) > 5.00

Q) Quick one: pIC50 for CCN1CCN(C2CN(c3cnc4ccc(-c5ccc6oc(N)nc6c5)nc4n3)C2)CC1 [Compound 627] ?
A) > 5.00

Q) Which pIC50 value is on record for Nc1nc2cc(-c3ccc4ncc(-c5cccnc5)nc4n3)ccc2o1 [Compound 554] ?
A) > 5.00
